# assay method text: Capillary depletion (distribution brain parenchyma versus capillaries)
# Format: in vivo, ICR-CD-1 mice
# recorded conditions: female, ICR-CD-1, mouse, brain parenchyma/serum, iv, 80 μg per mouse; mice, 10 min after i.v. injection; read-out: spilanthol in brain parenchyma (brain/serum ratio)

{"columns": ["molecule smiles", "Kp at 10 min"],
 "data": [
  ["C/C=C/C=C\\CC/C=C/C(=O)NCC(C)C", 0.138]
]}

* * *

# assay method text: Pharmacokinetic oral gavage experiment in rats (serum spilanthol, one compartmental model)
# Format: in vivo, Wistar rats
# recorded conditions: both sexes, Wistar, rat, serum, po, 0.73 mg, oral gavage of 1.5 ml of 0.73 mg spilanthol/g dose solution (A. Vogel extract), one compartmental model, read-out: elimination rate constant ke (converted)
# Description: The Wistar rats were bred in Bharat Serum and Vaccines pvt. Ltd, Thane, India (registration number 103/99/CPCSEA) and kept for the experiments at C. […] 60 μl of the serum samples, 60 μl of 4 % (V/V) aqueous H3PO4 solution and 30 μl of the IS solution were transferred into a 0.5 ml (LoBind Eppendorf) tube and vortexed. […] To the eluate, 25 μl of a 80:20 (V/V) H2O:MeOH solution was added and analysed with a UPLC-MS^2 method, as further described.

{"columns": ["molecule smiles", "units of measure", "k el"],
 "data": [
  ["C/C=C/C=C\\CC/C=C/C(=O)NCC(C)C", "s⁻¹", 0.000167]
]}
